assay: physchem; conditions: octan-1-ol/water, pH 7.4, LogD7.4
MEASUREMENT_TYPE: logD
# output: bare number, no unit

[in] Answer with reported logD of O=C(CCN1CCCCC1)Nc1ccc(-c2cccn3c(=O)cc(N4CCOCC4)nc23)c2sc3ccccc3c12
[out] 2.9

[in] Identify measured logD corresponding to CCCCCSc1nc2nc(N)sc2c(=O)[nH]1
[out] 2.86

[in] Return logD for the following compound: CNC(=O)C1(N2CCCCC2=O)CCN(CC[C@H](CN(C)C(=O)c2c(OC)c(C#N)cc3ccccc23)c2ccc(Cl)c(Cl)c2)CC1
[out] 2.78

[in] // Input: Nc1cc2n[nH]c(=O)n2c2cc(-c3ccsc3)ccc12 . Output its logD only.
[out] 3.18

[in] Tell me measured logD for C[C@@H]1CN(c2ccc3c(n2)NC(=O)CO3)[C@H](c2ccccc2)CO1 please.
[out] 2.75

[in] Answer with the recorded logD for the compound listed here: COCCNC(=O)c1ccc(Nc2ncc3cc(-c4ccnc(C)c4)ccc3n2)cc1
[out] 3.56

[in] Please report logD for the following compound: COCCOc1cc2nccc(Nc3cc(O)c(Cl)cc3F)c2cc1OC
[out] 2.64

[in] Identify measured logD associated with CCOc1cc2nnc(C(N)=O)c(Nc3cccc(Cl)c3F)c2cc1N1CCN(C)CC1
[out] 1.99

[in] Give recorded logD. CCC(=O)N1CCN(C(=O)c2cc(Cc3n[nH]c(=O)c4ccccc34)ccc2F)CC1
[out] 1.22

[in] # return recorded logD for entry Cc1ccccc1S(=O)(=O)NC(=O)N1CCC(N2CCC(Oc3ccc(Cl)c(Cl)c3)CC2)CC1
[out] 1.71

[in] Given COc1cc(N2CCN(C)CC2)c2nc(C(=O)Nc3ccc(N4CCOCC4)cc3)cc(N(C)C)c2c1 , respond with its logD.
[out] 3.3

[in] Look up and state reported logD for COc1cc2ncc(C(N)=O)c(Nc3cc(F)ccc3F)c2cc1OC
[out] 2.9

---

experiment: in vitro; conditions: human, hepatocytes
MEASUREMENT_TYPE: hepatocyte CLint

[in] Please indicate hepatocyte CLint recorded for C[C@H]1CN(Cc2cc(Cl)ccc2OCC(=O)O)CCN1C(=O)Cc1ccc(Cl)cc1
[out] < 3 µL/min/1e6 cells

[in] Look up hepatocyte CLint of C[C@]12CC[C@H]3[C@@H](CCC4=CC(=O)CC[C@@]43C)[C@@H]1CC[C@@H]2O [TESTOSTERONE] and report it.
[out] > 150 µL/min/1e6 cells

[in] # return recorded hepatocyte CLint for input C[C@H]1COCCN1c1nc(N2CCOC[C@@H]2C)c2ccc(-c3ccc4nc[nH]c(=O)c4c3)nc2n1
[out] > 150 µL/min/1e6 cells

---

Hi there, I'd appreciate the recorded microsomal CLint for every entry that follows.
assay: in vitro; conditions: human, liver microsomes

[in] Report measured microsomal CLint; entry is O=C(NO)c1ccccc1O [SALICYLHYDROXAMIC ACID]
[out] < 3 µL/min/mg

[in] Please give measured microsomal CLint of the following entry: CCCc1nc2c(C)cc(-c3nc4ccccc4n3C)cc2n1Cc1ccc(-c2ccccc2C(=O)O)cc1
[out] < 3 µL/min/mg

[in] Write down microsomal CLint measured for item COc1ccc(-c2nc3ccccc3c(=O)[nH]2)cc1
[out] > 150 µL/min/mg

[in] Identify the reported microsomal CLint for the following entry. Cc1c(Sc2ccc(Cl)cc2)c2ccc(Cl)cc2n1CC(=O)O
[out] < 3 µL/min/mg

[in] Dear colleague, please send me the reported microsomal CLint for C[C@@H](C(=O)NS(C)(=O)=O)c1ccc(OS(=O)(=O)C(F)(F)F)cc1 when you can.
[out] < 3 µL/min/mg

[in] Please look at this molecule and report its microsomal CLint: COc1ccccc1CN1C(=O)c2ccccc2C1C(=O)NC1CCC(C)CC1 (stereo unspecified)
[out] > 150 µL/min/mg

---

test: physchem
For each entry below, report its pKa value.
Enter a number only.

[in] Give the reported value of pKa for this record: CN1CCN(c2c(F)cc3c(=O)c(C(=O)O)cn(CCF)c3c2F)CC1
[out] 7.91

[in] Give the value of pKa reported for the following: O=C(O)COc1ccc(Cl)cc1CN1CCC(S(=O)(=O)c2ccccc2)CC1
[out] 7.8

[in] Answer with reported pKa of Clc1ccc2c(c1)CCc1cccnc1C2=C1CCNCC1
[out] 10

[in] Output measured pKa for this item: COC(=O)c1cc2nc([S+]([O-])Cc3ncccc3C)[nH]c2cc1C (centres undefined)
[out] 3.5

[in] Name the recorded pKa of the compound listed here: O=C(NCC12CC3CC(CC(C3)C1)C2)c1cc(CC2CCNCC2)ccc1Cl
[out] 10.1

[in] Quote pKa reported for Cc1ccc2c(c1)c(-c1ccnc3cc(Cl)ccc13)c(C)n2CC(=O)O please.
[out] 2.6

[in] Read off the recorded pKa for NCC(Oc1cc(Cl)ccc1Cl)c1ccccc1 (centres undefined)
[out] 8.5

[in] For the compound Nc1nc2ccccc2[nH]1 , report pKa.
[out] 7.2

[in] Identify measured pKa corresponding to NCCc1ccc([N+](=O)[O-])cc1
[out] 9.4

[in] Output measured pKa for this item: O=C(NCC12CC3CC(CC(C3)C1)C2)c1cc(CN2CCNCC2)ccc1Cl
[out] 8.85

[in] Name the recorded pKa of the compound listed here: Nc1cc(-c2cc(C(F)(F)F)ccc2Oc2cc(F)c(S(=O)(=O)Nc3ncns3)cc2Cl)ccn1
[out] 6.4

[in] Supply measured pKa of Cc1cc(-c2ccc(Cl)c(C(=O)NCC3(O)CCCCCC3)c2)nn1C[C@H](O)CN in your reply.
[out] 8.6

[in] Tell me pKa reported for O=C(O)COc1cccc(N2CCC(CN3CCC(Oc4ccc(Cl)c(Cl)c4)CC3)CC2)c1
[out] 9.3

[in] Identify the reported pKa for the following entry. NC1=NC(c2ccco2)Nc2c(F)ccc(F)c21 (centres undefined)
[out] 8.2

[in] Using the record for Cc1cc(N)nc(CCNC(=O)c2ccc(C#N)cc2)c1 , state its measured pKa.
[out] 7.1

[in] Given the compound Cc1ccnc(NCc2c(O)ccc3ccccc23)c1 , write its reported pKa.
[out] 6.6

[in] Look up and state reported pKa for O=C(O)COc1cccc(C(=O)N2CCC(N3CCC(Oc4ccc(Cl)c(Cl)c4)CC3)CC2)c1
[out] 8.2

[in] Supply reported pKa belonging to this compound: CN(C)C(=O)C(CCN1CCC(O)(c2ccc(Cl)cc2)CC1)(c1ccccc1)c1ccccc1 [LOPERAMIDE]
[out] 9.14

[in] Consider the compound CCCC(=O)Nc1ccc(OCC(O)CNC(C)C)c(C(C)=O)c1 (centres undefined) . State its measured pKa.
[out] 9.45

[in] For the compound O=S(=O)(Nc1ncns1)c1cc(F)c(Oc2ccc(Cl)cc2-c2ccnn2C2CNC2)cc1F , give its reported pKa.
[out] 10.1

[in] Please indicate pKa recorded for CC(C)c1nc2ccc(-c3ccc(F)cc3)cc2c(=O)n1C[C@H]1CCCN(C(C)C)C1
[out] 9.91

[in] Identify measured pKa corresponding to N#Cc1ccc(C(=O)N2CCC3(CC2)N=C(N)c2c(F)cccc2N3)cc1
[out] 9

[in] Return value of pKa for input O=C(CN1C2=NCCN2c2ccccc21)c1ccc(Cl)cc1 , no commentary.
[out] 9.1

[in] For the compound CN(C)CCNc1cc(-c2ccc(N3CCN(C)CC3)cc2)nc2ccccc12 , give its measured pKa value.
[out] 8.94

[in] Give recorded pKa. CCOCc1nc2c(N)nc3ccccc3c2n1CC(C)(C)O
[out] 7.1

[in] Look up pKa of CC(NC(C)(C)C)C(=O)c1cccc(Cl)c1 (centres undefined) and report it.
[out] 8.4

[in] Consider the compound Cc1nc2ccc(-c3ccc(Cl)cc3)cc2c(=O)n1C[C@H]1CCCN(C(C)C)C1 and give its recorded pKa.
[out] 10.1

[in] Fill in pKa for record N#Cc1ccc(Cl)cc1O[C@H](CCN)c1ccccc1
[out] 10.3

[in] Given Cn1c([S+]([O-])Cc2ccccn2)nc2ccccc21 (centres undefined) , respond with its pKa.
[out] 2.6

[in] Assign pKa to the following record: Cc1cc(C(C)(C)C)cc(C)c1CC1=NCCN1
[out] 10.6

[in] Hello, please tell me recorded pKa for this one: O=C(NCC12CC3CC(CC(C3)C1)C2)c1cc(OCCCNCCCO)ccc1Cl
[out] 9.5

[in] Please look at this compound and report its pKa: NCCc1ccc(O)c2nc(O)ccc12
[out] 7.7

[in] For the compound CCCCNc1cc(C(=O)O)cc(S(N)(=O)=O)c1Oc1ccccc1 [BUMETANIDE] , give its measured pKa value.
[out] 6.07

[in] Fill in pKa for record Cc1nnc(C(C)C)n1[C@H]1C[C@H]2CC[C@@H](C1)N2CC[C@H](NC(=O)C1CCC(F)(F)CC1)c1ccccc1
[out] 9.66
